FYI, the data here is from patent US20090012085A1.

# assayRemarks: Phase I dose-escalating study, plasma pharmacokinetics in patients with solid tumor
# Type: in vivo, human
# conditionDescription: human, plasma, 25 mg, 25 mg QD (4/1), C2D28 (n = 5), plasma; read-out: Cmax, mean (% CV)
measurementName: Cmax

{"columns": ["structureNotation", "result"],
 "data": [
  ["Cc1[nH]c(/C=C2\\C(=O)Nc3ccc(F)cc32)c(C)c1C(=O)NC[C@H](O)CN1CCOCC1", "0.0618 µg/mL"]
]}

###

# assayRemarks: Phase I dose-escalating study, plasma pharmacokinetics in patients with solid tumor
# Type: in vivo, human
# conditionDescription: human, plasma, 50 mg, 50 mg QD (4/1), C1D28 (n = 5), plasma; read-out: AUC(0-24), mean (% CV)
measurementName: AUC(0-t) (ng·h/mL)

{"columns": ["structureNotation", "measurementName", "numericReadout"],
 "data": [
  ["Cc1[nH]c(/C=C2\\C(=O)Nc3ccc(F)cc32)c(C)c1C(=O)NC[C@H](O)CN1CCOCC1", "AUC(0-t)", 1350]
]}

###

# assayRemarks: Phase I dose-escalating study, plasma pharmacokinetics in patients with solid tumor
# Format: in vivo, human
# conditionDescription: human, plasma, 50 mg, 50 mg QD 4/1 (n = 5), nominal time 2 h; read-out: Mean plasma concentration following the last dose on cycle 1 day 28
measurementName: concentration at 2 h

{"columns": ["compound", "measurementName", "result"],
 "data": [
  ["Cc1[nH]c(/C=C2\\C(=O)Nc3ccc(F)cc32)c(C)c1C(=O)NC[C@H](O)CN1CCOCC1 [compound 1]", "concentration at 2 h", "84.5 ng/mL"]
]}

###

# assayRemarks: Phase I dose-escalating study, plasma pharmacokinetics in patients with solid tumor
# Format: in vivo, human
# conditionDescription: human, plasma, 250 mg, 250 mg QD (4/1), C1D28 (n = 4), plasma; read-out: Cmax, mean (% CV)

{"columns": ["molecule", "Cmax"],
 "data": [
  ["Cc1[nH]c(/C=C2\\C(=O)Nc3ccc(F)cc32)c(C)c1C(=O)NC[C@H](O)CN1CCOCC1 [compound 1]", "734 ng/mL"]
]}

###

# assayRemarks: Phase I dose-escalating study, plasma pharmacokinetics in patients with solid tumor
# Format: in vivo, human
# conditionDescription: human, plasma, oral, 25 mg, 25 mg QD (4/1), C2D28 (n = 5), plasma; read-out: C(trough, 24 h), mean (% CV)

{"columns": ["structureNotation", "measurementUnits", "concentration at 24 h"],
 "data": [
  ["Cc1[nH]c(/C=C2\\C(=O)Nc3ccc(F)cc32)c(C)c1C(=O)NC[C@H](O)CN1CCOCC1", "ng/mL", 21.4]
]}

###

# assayRemarks: Phase I dose-escalating study, plasma pharmacokinetics in patients with solid tumor
# Type: in vivo, human
# conditionDescription: human, plasma, 50 mg, 50 mg QD (4/1), C2D28 (n = 3), plasma; read-out: t½, mean (% CV) (converted)
# Method: Cmax values, or maximum total plasma concentrations, of a compound of formula 1 can be measured according to techniques well known to those skilled in the art. For example, after a compound of formula 1 has been administered to a mammal, blood samples can be taken at fixed time points over a period of time (e.g. 24 hours) and the serum or plasma concentration of compound of formula 1 can be measured using standard analytical techniques known in the art. […]
measurementName: half-life

{"columns": ["structureNotation", "result"],
 "data": [
  ["Cc1[nH]c(/C=C2\\C(=O)Nc3ccc(F)cc32)c(C)c1C(=O)NC[C@H](O)CN1CCOCC1", "18.9 h"]
]}

###

# assayRemarks: Phase I dose-escalating study, plasma pharmacokinetics in patients with solid tumor
# Format: in vivo, human
# conditionDescription: human, plasma, 250 mg, 250 mg QD (4/1), C1D1 (n = 6), plasma; read-out: AUC(0-24), mean (% CV)

{"columns": ["compound", "AUC(0-t)"],
 "data": [
  ["Cc1[nH]c(/C=C2\\C(=O)Nc3ccc(F)cc32)c(C)c1C(=O)NC[C@H](O)CN1CCOCC1 [compound 1]", "7580 ng·h/mL"]
]}

###

# assayRemarks: Phase I dose-escalating study, plasma pharmacokinetics in patients with solid tumor
# Assay type: in vivo, human
# conditionDescription: human, plasma, 150 mg, 150 mg QD (4/1), C1D1 (n = 7), plasma; read-out: AUC(0-24), mean (% CV)

{"columns": ["compound", "AUC(0-t) (µg·h/mL)"],
 "data": [
  ["Cc1[nH]c(/C=C2\\C(=O)Nc3ccc(F)cc32)c(C)c1C(=O)NC[C@H](O)CN1CCOCC1 [compound 1]", 3.37]
]}

###

# assayRemarks: Phase I dose-escalating study, plasma pharmacokinetics in patients with solid tumor
# Format: in vivo, human
# conditionDescription: human, plasma, 25 mg, 25 mg QD 4/1 (n = 6), nominal time 0 h; read-out: Mean plasma concentration following the last dose on cycle 1 day 28

{"columns": ["structureNotation", "concentration at 0 h"],
 "data": [
  ["Cc1[nH]c(/C=C2\\C(=O)Nc3ccc(F)cc32)c(C)c1C(=O)NC[C@H](O)CN1CCOCC1", "22.2 ng/mL"]
]}

###

# assayRemarks: Phase I dose-escalating study, plasma pharmacokinetics in patients with solid tumor
# Assay type: in vivo, human
# conditionDescription: human, plasma, 100 mg, 100 mg QD (4/1), C1D28 (n = 6), plasma; read-out: tmax, mean (% CV)

{"columns": ["structureNotation", "Tmax [h]"],
 "data": [
  ["Cc1[nH]c(/C=C2\\C(=O)Nc3ccc(F)cc32)c(C)c1C(=O)NC[C@H](O)CN1CCOCC1", 2.7]
]}

###

# assayRemarks: Phase I dose-escalating study, plasma pharmacokinetics in patients with solid tumor
# Format: in vivo, human
# conditionDescription: human, plasma, 50 mg, 50 mg QD (4/1), C1D28 (n = 5), plasma; read-out: t½, mean (% CV) (converted)

{"columns": ["compound", "measurementUnits", "half-life"],
 "data": [
  ["Cc1[nH]c(/C=C2\\C(=O)Nc3ccc(F)cc32)c(C)c1C(=O)NC[C@H](O)CN1CCOCC1 [compound 1]", "h", 24]
]}

###

# assayRemarks: Phase I dose-escalating study, plasma pharmacokinetics in patients with solid tumor
# Format: in vivo, human
# conditionDescription: human, plasma, 250 mg, 250 mg QD (4/1), C1D28 (n = 4), plasma; read-out: C(trough, 24 h), mean (% CV)

{"columns": ["structureNotation", "measurementUnits", "concentration at 24 h"],
 "data": [
  ["Cc1[nH]c(/C=C2\\C(=O)Nc3ccc(F)cc32)c(C)c1C(=O)NC[C@H](O)CN1CCOCC1", "ng/mL", 246]
]}

###

# assayRemarks: Phase I dose-escalating study, plasma pharmacokinetics in patients with solid tumor
# Format: in vivo, human
# conditionDescription: human, plasma, 200 mg, 200 mg QD 4/1 (n = 5), nominal time 72 h; read-out: Mean plasma concentration following the last dose on cycle 1 day 28

{"columns": ["compound", "concentration at 72 h [ng/mL]"],
 "data": [
  ["Cc1[nH]c(/C=C2\\C(=O)Nc3ccc(F)cc32)c(C)c1C(=O)NC[C@H](O)CN1CCOCC1 [compound 1]", 31.4]
]}

###

# assayRemarks: Phase I dose-escalating study, plasma pharmacokinetics in patients with solid tumor
# Format: in vivo, human
# conditionDescription: human, plasma, 250 mg, 250 mg QD (4/1), C2D28 (n = 4), plasma; read-out: t½, mean (% CV) (converted)
measurementName: half-life (h)

{"columns": ["structureNotation", "numericReadout"],
 "data": [
  ["Cc1[nH]c(/C=C2\\C(=O)Nc3ccc(F)cc32)c(C)c1C(=O)NC[C@H](O)CN1CCOCC1", 13.2]
]}

###

# assayRemarks: Phase I dose-escalating study, plasma pharmacokinetics in patients with solid tumor
# Format: in vivo, human
# conditionDescription: human, plasma, 100 mg, 100 mg QD (continuous), C1D28 (n = 6), plasma; read-out: AUC(0-24), mean (% CV)

{"columns": ["structureNotation", "AUC(0-t)"],
 "data": [
  ["Cc1[nH]c(/C=C2\\C(=O)Nc3ccc(F)cc32)c(C)c1C(=O)NC[C@H](O)CN1CCOCC1", "2990 ng·h/mL"]
]}

###

# assayRemarks: Phase I dose-escalating study, plasma pharmacokinetics in patients with solid tumor
# Type: in vivo, human
# conditionDescription: human, plasma, 150 mg, 150 mg QD Continuous (n = 6), nominal time 2 h; read-out: Mean plasma concentration following the last dose on cycle 1 day 28

{"columns": ["structureNotation", "measurementUnits", "concentration at 2 h"],
 "data": [
  ["Cc1[nH]c(/C=C2\\C(=O)Nc3ccc(F)cc32)c(C)c1C(=O)NC[C@H](O)CN1CCOCC1", "µg/mL", 0.453]
]}
